Let's look at some molecules and their measured viability, T/C.
# Tested on: 883617-216-R-J1-PDC complex spheroid viability
# Test Summary: Anticancer human tumor 883617-216-R-J1-PDC patient-derived bladder carcinoma cell line growth inhibition [POLQ]
# Condition Info: second compound 0.316 µM; first compound 0.1 µM; stronger effect = lower value

Molecule	viability, T/C [%]
COc1cc2cc(C(=O)CCC(=O)O)sc2cc1OC + Cc1cccc(N(C)C(=O)C2C(O)CCN2c2nc(C)cc(C(F)(F)F)c2C#N)c1	114
CC1COCCN1c1cc(C2(S(C)(=N)=O)CC2)nc(-c2ccnc3[nH]ccc23)n1 (centres undefined) + Cc1cccc(N(C)C(=O)C2C(O)CCN2c2nc(C)cc(C(F)(F)F)c2C#N)c1	96.4
Nc1ccn(C2OC(CO)C(O)C2(F)F)c(=O)n1 (centres undefined) + Cc1cccc(N(C)C(=O)C2C(O)CCN2c2nc(C)cc(C(F)(F)F)c2C#N)c1	31.9
CCc1cc2c(N3CCc4c(cc(Cn5ccnc5)cc4-c4cn(C)nc4C(F)(F)F)C3=O)cc(C)nc2c(OC)n1 + Nc1ccc(C#CCN(C(=O)Cc2ncc(C(F)(F)F)cc2C(F)(F)F)c2ccc(F)cc2)nn1	93.1

---

# Tested on: 883617-216-R-J1-PDC complex spheroid viability
# Test Summary: Anticancer human tumor 883617-216-R-J1-PDC cell line growth inhibition [POLQ];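 further: spheroids exposed to compounds for seven days before readout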;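 on viability, T/C: 100% = DMSO vehicle control viability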
# Condition Info: second compound 0.0316 µM; first compound 0.01 µM; stronger effect = lower value

Compound	viability, T/C (%)
CCc1c2c(nc3ccc(O)cc13)-c1cc3c(c(=O)n1C2)COC(=O)[C@]3(O)CC + Cc1cccc(N(C)C(=O)C2C(O)CCN2c2nc(C)cc(C(F)(F)F)c2C#N)c1	58.6
CC[C@@]1(O)C(=O)OCc2c1cc1n(c2=O)Cc2cc3c(CN(C)C)c(O)ccc3nc2-1 + Cc1cccc(N(C)C(=O)C2C(O)CCN2c2nc(C)cc(C(F)(F)F)c2C#N)c1	79.3
CC[C@@]1(O)C(=O)OCc2c1cc1n(c2=O)Cc2cc3c(CN(C)C)c(O)ccc3nc2-1 + Nc1ccc(C#CCN(C(=O)Cc2ncc(C(F)(F)F)cc2C(F)(F)F)c2ccc(F)cc2)nn1	84.8
COc1cccc(OCCCN)c1-c1cc(Nc2cnc(C#N)cn2)n[nH]1 + COC1C(OC(N)=O)C(O)C(Oc2ccc3c(O)c(NC(=O)c4ccc(O)c(CC=C(C)C)c4)c(=O)oc3c2C)OC1(C)C	73.8

---

# System: 883617-216-R-J1-PDC complex spheroid viability
# Test Summary: Anticancer human tumor 883617-216-R-J1-PDC cell line growth inhibition [POLQ];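 further: spheroids exposed to compounds for seven days before readout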
# Condition Info: curve of first compound; second compound 0.0316 µM
pIC50: −log10 of the molar value.

Molecule	Relation	pIC50
CNCc1ccc(-c2[nH]c3cc(F)cc4c3c2CCNC4=O)cc1 + COC1C(OC(N)=O)C(O)C(Oc2ccc3c(O)c(NC(=O)c4ccc(O)c(CC=C(C)C)c4)c(=O)oc3c2C)OC1(C)C	<	5.00
COc1ccc([C@@H](O)c2cc(-c3ncnc4cc(N5CCOCC5)ccc34)c(F)cc2Cl)nn1 + Cc1cccc(N(C)C(=O)C2C(O)CCN2c2nc(C)cc(C(F)(F)F)c2C#N)c1	=	5.57
CCc1c2c(nc3ccc(O)cc13)-c1cc3c(c(=O)n1C2)COC(=O)[C@]3(O)CC + COC1C(OC(N)=O)C(O)C(Oc2ccc3c(O)c(NC(=O)c4ccc(O)c(CC=C(C)C)c4)c(=O)oc3c2C)OC1(C)C	=	7.01
COc1cccc(OCCCN)c1-c1cc(Nc2cnc(C#N)cn2)n[nH]1 + COC1C(OC(N)=O)C(O)C(Oc2ccc3c(O)c(NC(=O)c4ccc(O)c(CC=C(C)C)c4)c(=O)oc3c2C)OC1(C)C	=	7.41
CC1COCCN1c1cc(C2(O)CC3CCC(C2)O3)c2cnn(-c3ccn[nH]3)c2n1 (stereo not given) + Cc1cccc(N(C)C(=O)C2C(O)CCN2c2nc(C)cc(C(F)(F)F)c2C#N)c1	=	6.81

src = PubChem BioAssay AID1963833
